Listed compounds paired with reported pKa
measurement-description: pKa measurement by absorbance at 280 nm as a function of pH
Type: physicochemical
test-parameters: aqueous buffer solutions in 96-well microplate; presence of 200 mM glucose (DBA-G); 1 mM DBA2+Br, absorbance at 280 nm vs pH; read-out: pKa in the presence of glucose
Give your answer as a number; write no unit.

INSERT INTO assay_data (compound, assay_readout, observed_result) VALUES
  ('C[N+](C)(Cc1ccc(C[N+](C)(C)Cc2ccccc2B(O)O)cc1)Cc1ccccc1B(O)O', 'pKa', 6.3);

Could you now look at the following compound, please?
Name the recorded pKa of the item C[N+]1(C)Cc2ccc(cc2)C[N+](C)(C)Cc2ccccc2[B-]2(O)OC3OC4CO[B-](O)(OC4C(O)C3O2)c2ccccc2C1 (centres unmarked) in your answer.
6.3

* * *

measurement-description: pKa measurement by absorbance at 280 nm as a function of pH
Assay type: physicochemical
test-parameters: aqueous buffer solutions in 96-well microplate, absence of glucose; 1 mM DBA2+Br, absorbance at 280 nm vs pH; read-out: pKa
assay-readout: pKa
Reply with the value as a number alone.

State its pKa: C[N+](C)(Cc1ccc(C[N+](C)(C)Cc2ccccc2B(O)O)cc1)Cc1ccccc1B(O)O
9.4

Reference for the values: patent US20220204531A1
